Test system: MOLT-4 leukemia
Assay: NCI-60 one-dose screen, 48 h
Settings: 10 µM unless noted
About 83,000 compounds went through this panel and 20% of them were active in at least one assay; those are over-represented in the sample as a whole. The source made the active and inactive calls. The calls were made as follows: active = growth percent below 10; inactive = the rest.
Outcome codes: active, inactive

MOLECULE: CCCC(=O)NNc1[nH]c(-c2cc(OC)c(OC)c(OC)c2)cc1C(=O)OCC
CLASS: active

MOLECULE: N#CCc1ncc(-c2ccc(C(F)(F)F)cc2)c(NC2CCCCCC2)n1
CLASS: active

MOLECULE: Cc1ncc(C(=O)Nc2ccc(CN3CCN(C)CC3)c(C(F)(F)F)c2)cc1C#Cc1c(N)ncc2ccc(F)cc12
CLASS: active

MOLECULE: COc1cc(OC)c2c(=O)cc(-c3ccccc3)oc2c1
CLASS: inactive

MOLECULE: CCOC(=O)CCCCCCCCC(=O)OCC
CLASS: inactive

MOLECULE: COC(=O)C(C)[C@H]1CC[C@@H]2[C@]1(C)CC=C1[C@]23C=C[C@]2(C[C@@H](OC(C)=O)CC[C@]12C)C(C(=O)OC)C3C(=O)OC (stereo not given in full)
CLASS: inactive

MOLECULE: CC(=O)O.[In]
CLASS: inactive

MOLECULE: CCN(CCO)CCNc1ccc(C)c2sc3cc(OC)ccc3c(=O)c12
CLASS: inactive

MOLECULE: COc1cc2ncnc(-n3ncc4cc(NC(=O)Nc5ccc(Cl)c(C)c5)ccc43)c2cc1OC
CLASS: inactive

MOLECULE: C/C=C/C/C=C/[C@H](C)C[C@H](O)[C@@H]1C[C@@H]2O[C@H]2/C=C/[C@H](O)[C@@H](O)/C=C/C[C@H](C)CC(=O)O1
CLASS: inactive

MOLECULE: CCNc1nnc(COc2ccc(CNC(=O)CCCC/C=C/C(C)C)cc2OC)o1
CLASS: inactive

MOLECULE: Br/C(=N\Nc1nn[nH]n1)c1ccccc1
CLASS: inactive

MOLECULE: COc1cccc(NC(=O)NCCNc2nccc(-c3c(-c4ccc(F)cc4)nc4sccn34)n2)c1
CLASS: inactive

MOLECULE: COc1cc(OC)cc(-c2ccc(-c3ccc(C(=N)N)cc3)s2)c1
CLASS: active

MOLECULE: COc1ccc(OC)c(Cn2cc3c(c2-c2ccccc2)CCc2cnoc2-3)c1
CLASS: inactive

====

Test system: PC-3 prostate
Assay: NCI-60 one-dose screen, 48 h
Conditions: 10 µM unless noted
The panel holds about 83,000 compounds, 20% with a hit somewhere; the sample as a whole holds those more often. Calls of active or inactive are those of the source. The calls were made as follows: active = growth percent below 10; inactive = the rest.
Outcome codes: active, inactive

COMPOUND: C[C@]12C=CC(=O)C=C1[C@@H](F)C[C@@H]1[C@@H]2[C@@H](O)C[C@@]2(C)[C@H]1CC[C@]2(O)C(=O)CO
CLASS: inactive
--
COMPOUND: CCOC(=O)c1c(C)oc2ncnc(Nc3ccc(NC(=O)Nc4cccc(Cl)c4)cc3)c12
CLASS: inactive
--
COMPOUND: COCC(=O)NNc1[nH]c(-c2ccc(OC)cc2)cc1C#N
CLASS: inactive
--
COMPOUND: CCCCCCCCc1ccc(OCCOCC[N+](C)(C)CC)cc1 (tested in a mixture with another compound)
CLASS: inactive
--
COMPOUND: CCCC(=O)NNc1[nH]c(-c2ccc(OC)cc2)cc1C(=O)OCC
CLASS: inactive
--
COMPOUND: O=C(CN1C(=O)NC(c2ccccc2)(c2ccccc2)C1=O)c1ccc(N2CCCC2)cc1
CLASS: inactive
--
COMPOUND: COc1ccc(C(=O)CN2C(=O)NC(c3ccccc3)(c3ccccc3)C2=O)cc1
CLASS: inactive
--
COMPOUND: CNc1nc2ncn(C)c2c(=O)[nH]1
CLASS: inactive
--
COMPOUND: CCOC(=O)CSSCC(=O)OCC
CLASS: inactive
--
COMPOUND: N#Cc1ccc(NC2c3ccccc3CC2O)cc1 (configuration not stated)
CLASS: inactive
--
COMPOUND: CCOC(=O)C1=C(C(F)(F)F)NC(=O)NC1CN1C(=O)c2ccccc2C1=O (configuration not stated)
CLASS: inactive
--
COMPOUND: C=CN(C)S(C)(=O)=O
CLASS: inactive
--
COMPOUND: CNc1ccc(Nc2ccc(S(=O)(=O)O)cc2)c2c1C(=O)c1ccccc1C2=O
CLASS: inactive
--
COMPOUND: CC(=O)C(CO)C(=O)Nc1ccccc1 (configuration not stated)
CLASS: inactive
--
COMPOUND: CC(C)C(=O)c1ccc(Cl)s1
CLASS: inactive
--
COMPOUND: CN1C(=O)C(=Cc2coc3ccc(Br)cc3c2=O)C(=O)N(C)C1=O
CLASS: inactive
--
COMPOUND: COc1cc(NC(C)CCCN)c2nccc(C)c2c1OC (configuration not stated)
CLASS: inactive
--
COMPOUND: COc1cc2cc3cc4cc(OC)c(OC)cc4c(C)[n+]3cc2cc1OC (tested in a mixture with another compound)
CLASS: inactive
--
COMPOUND: COC(=O)C(N)CC(C)C (configuration not stated)
CLASS: inactive
--
COMPOUND: NCCCOc1cc2ccccc2cc1C(=O)Nc1ccc(Cl)cc1OC(=O)c1cc2ccccc2cc1OCCCN
CLASS: active
--
COMPOUND: O=C(NC(=S)NNC(=S)NNc1ccccc1)c1ccccc1
CLASS: inactive
--
COMPOUND: O=C1C(=O)c2ccccc2C(O)=C1CCCc1ccc(Oc2ccccc2)cc1
CLASS: inactive
--
COMPOUND: O=C(CCl)c1ccc2c(c1)CCCC2
CLASS: inactive
--
COMPOUND: COC(=O)Nc1nc2ccc(C(=O)c3ccccc3N(C)C3COC3)cc2[nH]1
CLASS: inactive
--
COMPOUND: CC(=O)N1N=C(c2ccc(Cl)cc2)CC1c1cn(-c2ccccc2)nc1-c1ccc([N+](=O)[O-])cc1 (configuration not stated)
CLASS: inactive
--
COMPOUND: CC(=N\N=C(N)N)/C(=N/N=C(N)N)c1ccccc1
CLASS: inactive
--
COMPOUND: CC(C)(CNC1CCCCC1)OC(=O)c1ccccc1
CLASS: inactive

====

Test system: SF-295 CNS
Assay: NCI-60 one-dose screen, 48 h
Details: 10 µM unless noted
The panel holds about 83,000 compounds, 20% with a hit somewhere; the sample as a whole holds those more often. The source made the active and inactive calls. The calls were made as follows: active = growth percent below 10; inactive = the rest.
Labels: y = active, n = inactive

COMPOUND: NNC(=S)N1N=C(c2cc3ccccc3o2)CC1c1c[nH]c2ccccc12 (stereo not given)
CLASS: n

COMPOUND: CC(C)(C)c1ccc(OCCOC(=O)CBr)cc1
CLASS: n

COMPOUND: CNc1nc2ncn(C)c2c(=O)[nH]1
CLASS: n

COMPOUND: COc1ccc(-c2nc(SCC(C)C)nc(Nc3ccccc3)c2C#N)cc1
CLASS: n

COMPOUND: COc1cc(-c2nn(-c3ccc(NC(=O)c4ccc(Cl)c(C(F)(F)F)c4)cc3)cc2-c2ccncc2)ccc1Cl
CLASS: y

COMPOUND: Cc1nnc(-c2cc3c(ccc4ccccc43)oc2=O)c2cn(-c3ccc(Cl)cc3)nc12
CLASS: n

COMPOUND: C#CCCCCCCC[C@@H]1OC(=O)[C@H]([C@@H](C)CC)NC(=O)[C@H]([C@@H](C)CC)NC(=O)CC(=O)[C@@H]1C
CLASS: n

COMPOUND: CC(O)C(N)=O (stereo not given)
CLASS: n

COMPOUND: Cc1cc2cn3c4ccc(O)cc4nc(N)c3c2cc1C
CLASS: y

COMPOUND: C=C(C)[C@@H]1CC[C@]2(COC(=O)c3ccccc3C(=O)O)CC[C@]3(C)[C@H](CC[C@@H]4[C@@]5(C)CCCNC(C)(C)[C@@H]5CC[C@]43C)[C@@H]12
CLASS: n

COMPOUND: CC(=O)OCC(=O)[C@@]1(O)[C@H](C)C[C@H]2[C@@H]3C=C(C)C4=Cc5c(cnn5-c5ccc(F)cc5)C[C@]4(C)[C@H]3[C@@H](O)C[C@@]21C
CLASS: y

COMPOUND: COc1cccc2c1nc1cccc(OC)c1[n+]2[O-]
CLASS: n

COMPOUND: O=c1c(N=Nc2nccs2)c(-c2ccccc2)[nH]n1-c1nc(-c2ccccc2)cs1
CLASS: n

COMPOUND: COc1cc(-c2cc3cnccc3c3nc(N)c4ccncc4c23)cc(OC)c1OC
CLASS: n

COMPOUND: O=C1C(=O)c2ccccc2C(O)=C1CCCc1ccc(C2CCCC2)cc1
CLASS: n

COMPOUND: C/C(=N\Nc1ccc(Cl)cn1)c1ccc2ccccc2n1
CLASS: y

COMPOUND: CCOc1ccc(/C=N/NC(=O)c2cccc3ccccc23)cc1OCC
CLASS: n

COMPOUND: OCCN1CCCN(CCCN2c3ccccc3Sc3ccc(C(F)(F)F)cc32)CC1
CLASS: n

COMPOUND: Cc1c(CN(C)C)cc(C(C)C)cc1C(C)C
CLASS: n

COMPOUND: COc1cccc(-c2cc(-c3cc4ccccc4oc3=O)nc(N)n2)c1
CLASS: n

COMPOUND: Cc1ccc(C(=O)Nc2ccc(CN3CCN(C)CC3)c(C(F)(F)F)c2)cc1C#Cc1cncc2ncccc12
CLASS: n

COMPOUND: CCOC1=C(Cl)C(=O)C(OCC)=C(Cl)C1=O
CLASS: n

COMPOUND: N=C(N)N=Nc1ccc(NN=C(N)N)c2ccccc12
CLASS: n

COMPOUND: C[n+]1c2ccccc2c(Nc2ccc(NS(=O)(=O)CCCCN=C(N)N)cc2)c2ccc(N)cc21
CLASS: y

COMPOUND: CC(=O)Nc1nc(C)c(C(=O)N/N=C/N2CCOCC2)s1
CLASS: n
